B1: Zinc finger homeobox protein 4, residues 2086 to 2141; numbered along this chain, Q86UP3 (parent)
chain: RPRTRITDDQLKILRAYFDINNSPSEEQIQEMAEKSGLSQKVIKHWFRNTLFKERQ

Variants of: B1
Measurement Notes: abundance fitness (aPCA) (normalised: wild type 0, dead -1); higher = more abundant; growth selection in yeast, the domain comes from the species named
Condition Summary: Homo sapiens
Readout Label: abundance fitness

Answered cases to consult:
> print(dat)
                             sequence.entry      readout.label  reported.value
1  RPRTRITDDQLKILRAYFDINNSPSEEQIQEMAEKSGLSQAVIKHWFRNTLFKERQ [K41A]  abundance fitness          -0.136
2  RPRTRITDDQLKILRAYFDINNSPSEEQIQEMAEKSGLSQKVIKHWFRNYLFKERQ [T50Y]  abundance fitness          -0.288
3  RPRTRITDDQLKILRAYFDINNSPSEEQIQEMAEKSGLSQKVIKHWFRNTLFKERV [Q56V]  abundance fitness          -0.568
4  RPRTRITDDQLKILRAYFDINNSPSEEQRQEMAEKSGLSQKVIKHWFRNTLFKERQ [I29R]  abundance fitness           -0.21
5  RPRTRITDDQLKILRAYFDINNSPSTEQIQEMAEKSGLSQKVIKHWFRNTLFKERQ [E26T]  abundance fitness           0.133
6  RPRTRITDDQLKILRAYFDITNSPSEEQIQEMAEKSGLSQKVIKHWFRNTLFKERQ [N21T]  abundance fitness           0.009

Kindly give each listed record's abundance fitness.
1. RPRTRITDDQLKILRAYFDWNNSPSEEQIQEMAEKSGLSQKVIKHWFRNTLFKERQ [I20W]
2. RPRTRITDDQLKILRAYFDINNSPSEEQIQEMAEASGLSQKVIKHWFRNTLFKERQ [K35A]

## Output
1. -0.273
2. -0.247
